- assayed_system: human recombinant CD38 (hydrolase activity) (Homo sapiens, UniProt P28907)
- Sequence (P28907 whole entry): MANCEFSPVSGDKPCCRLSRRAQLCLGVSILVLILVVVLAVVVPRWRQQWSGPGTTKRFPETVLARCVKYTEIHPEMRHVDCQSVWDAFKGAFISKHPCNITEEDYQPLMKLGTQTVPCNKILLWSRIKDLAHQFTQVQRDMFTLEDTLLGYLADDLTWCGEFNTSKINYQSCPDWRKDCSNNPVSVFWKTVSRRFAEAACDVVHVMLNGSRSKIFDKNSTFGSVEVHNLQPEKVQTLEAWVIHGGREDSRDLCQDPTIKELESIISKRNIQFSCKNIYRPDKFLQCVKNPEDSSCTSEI
- assay_notes: Human recombinant CD38 fluorometric enzyme assay, hydrolase activity (εNAD+)
- Assay type: biochemical
- experimental_parameters: 50.0 μM compound; 10 nM recombinant CD38, 10 μM εNAD+
metric_name: remaining activity at 50 µM

stdin: # get_value(readout= remaining activity at 50 µM, system= human recombinant CD38 (hydrolase activity) (Homo sapiens, UniProt P28907)) for Cc1nc(NC2=NCCC(=O)N2)nc2ccccc12 [Compound 6]
stdout: 66.8%

stdin: # iterate: CC1=NC(Nc2nc(C)c3cc(C)cc(C)c3n2)=NC(C)(C)C1 [Compound 12]
stdout: 52%

stdin: # iterate: CCOc1ccc2nc(Nc3nc(=O)c(Cc4ccccc4)c(C)[nH]3)nc(C)c2c1 [Compound 5]
stdout: 57%

stdin: # iterate: CC1=CC(C)(C)N=C(Nc2nc(C)c3cccc(C)c3n2)N1 [Compound 3]
stdout: 41%

---

- assayed_system: human recombinant CD38 (hydrolase activity) (Homo sapiens, UniProt P28907)
- assay_notes: Human recombinant CD38 fluorometric enzyme assay, hydrolase activity (εNAD+)
- Assay type: biochemical
- experimental_parameters: CD38 hydrolase IC50 versus 1
metric_name: decrease in potency relative to hit compound 1

stdin: # get_value(readout= decrease in potency relative to hit compound 1, system= human recombinant CD38 (hydrolase activity) (Homo sapiens, UniProt P28907)) for CCOc1ccc2nc(Nc3nc(=O)c(Cc4ccccc4)c(C)[nH]3)nc(C)c2c1 [Compound 5]
stdout: 2 fold

stdin: # iterate: CC1=NC(Nc2nc(C)c3cc(C)cc(C)c3n2)=NC(C)(C)C1 [Compound 12]
stdout: ~3 fold

stdin: # iterate: CC1=CC(C)(C)N=C(Nc2nc(-c3ccccc3)c3cc(C)cc(C)c3n2)N1 [Compound 11]
stdout: 5 fold

stdin: # iterate: CC1=CC(C)(C)N=C(Nc2nc(C)c3cccc(C)c3n2)N1 [Compound 3]
stdout: 2 fold

---

Give pIC50 for every item shown.
- assayed_system: human recombinant CD38 (hydrolase activity) (Homo sapiens, UniProt P28907)
- assay_notes: Human recombinant CD38 fluorometric enzyme assay, hydrolase activity (εNAD+)
- Assay type: biochemical
- experimental_parameters: recombinant CD38 enzyme assay
Please note pIC50 is a logarithmic value: minus log10 of concentration in mol/L. Answer with that number alone.

stdin: I would be grateful if you could share the reported pIC50 for CCc1ccc2c(C)nc(NC3=NC(C)(C)C=C(C)N3)nc2c1 .
stdout: 4.65

stdin: # iterate: Cc1nc(Nc2nc(CCC(C)C)cc(=O)[nH]2)nc2ccccc12
stdout: 5.40

stdin: # iterate: CC1=CC(C)(C)N=C(Nc2nc(C)c3cc(C)cc(C)c3n2)N1
stdout: 5.38

stdin: # iterate: CC1=CC(C)(C)N=C(Nc2nc(C)c3cccc(C)c3n2)N1
stdout: 5.08

stdin: # iterate: COc1cc(C)cc2c(C)nc(NC3=NC(C)(C)C=C(C)N3)nc12
stdout: 5.72

stdin: # iterate: Cc1cc(C)c2nc(Nc3nc(C)c(C)c(O)n3)nc(C)c2c1
stdout: 5.29

stdin: # iterate: COCCO[C@H]1CC[C@H](Nc2cc(=O)n(C)c3ccc(-c4cncs4)cc23)CC1 [Compound 14, reference compound]
stdout: 7.11
